Hey, just so you know, these numbers are from ChEMBL document CHEMBL4396963.

tested target: ALK tyrosine kinase receptor (Homo sapiens, UniProt Q9UM73, L1196M)
Sequence (Q9UM73 19-1620 L1196M limits assumed): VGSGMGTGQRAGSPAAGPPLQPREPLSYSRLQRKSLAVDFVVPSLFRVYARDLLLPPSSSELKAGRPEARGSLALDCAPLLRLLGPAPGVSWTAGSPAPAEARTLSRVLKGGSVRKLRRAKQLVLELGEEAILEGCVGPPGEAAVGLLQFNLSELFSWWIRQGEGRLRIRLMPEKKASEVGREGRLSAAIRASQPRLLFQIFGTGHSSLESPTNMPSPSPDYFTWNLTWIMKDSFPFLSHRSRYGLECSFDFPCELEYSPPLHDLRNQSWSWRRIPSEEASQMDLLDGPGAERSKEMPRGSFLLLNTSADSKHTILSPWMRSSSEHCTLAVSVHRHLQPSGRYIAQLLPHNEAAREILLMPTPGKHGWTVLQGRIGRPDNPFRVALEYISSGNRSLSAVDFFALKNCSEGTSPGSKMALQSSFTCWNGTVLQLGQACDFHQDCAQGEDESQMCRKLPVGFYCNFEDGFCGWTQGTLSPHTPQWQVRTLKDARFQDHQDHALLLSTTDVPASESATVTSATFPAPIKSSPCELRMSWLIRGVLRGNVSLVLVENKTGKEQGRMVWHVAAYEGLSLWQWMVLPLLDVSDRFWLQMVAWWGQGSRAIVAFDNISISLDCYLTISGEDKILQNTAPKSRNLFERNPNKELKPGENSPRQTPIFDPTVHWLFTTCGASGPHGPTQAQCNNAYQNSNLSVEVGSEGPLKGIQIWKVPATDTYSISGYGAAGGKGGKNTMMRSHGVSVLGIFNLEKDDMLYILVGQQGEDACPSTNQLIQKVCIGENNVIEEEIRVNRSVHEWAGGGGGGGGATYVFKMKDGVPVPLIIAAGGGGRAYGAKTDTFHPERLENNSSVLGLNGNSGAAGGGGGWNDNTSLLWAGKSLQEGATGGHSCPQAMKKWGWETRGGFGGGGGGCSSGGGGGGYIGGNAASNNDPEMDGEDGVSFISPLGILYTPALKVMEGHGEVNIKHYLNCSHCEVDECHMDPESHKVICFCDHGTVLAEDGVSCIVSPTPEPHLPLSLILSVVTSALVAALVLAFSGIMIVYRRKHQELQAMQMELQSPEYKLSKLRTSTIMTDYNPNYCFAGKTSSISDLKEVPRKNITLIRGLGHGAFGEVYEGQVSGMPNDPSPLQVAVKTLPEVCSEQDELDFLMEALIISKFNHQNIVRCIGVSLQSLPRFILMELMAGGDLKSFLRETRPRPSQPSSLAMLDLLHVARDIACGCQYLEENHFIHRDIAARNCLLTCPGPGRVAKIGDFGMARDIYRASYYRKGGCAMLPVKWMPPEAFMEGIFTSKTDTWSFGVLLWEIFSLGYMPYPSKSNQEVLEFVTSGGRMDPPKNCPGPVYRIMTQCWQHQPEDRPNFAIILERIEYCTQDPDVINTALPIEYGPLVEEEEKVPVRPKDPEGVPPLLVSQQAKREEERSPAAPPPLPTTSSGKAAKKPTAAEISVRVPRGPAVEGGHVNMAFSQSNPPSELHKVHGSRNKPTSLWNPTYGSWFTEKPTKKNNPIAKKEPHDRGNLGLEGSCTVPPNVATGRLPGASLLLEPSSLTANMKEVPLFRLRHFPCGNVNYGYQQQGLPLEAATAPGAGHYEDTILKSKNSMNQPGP
assay procedure: Inhibition of recombinant human N-terminal GST-tagged ALK (1058 to 1620 residues) cytoplasmic domain L1196M mutant expressed in baculovirus expression system using srctide as substrate incubated for 1 hr by mobility shift assay
Below is a list of entries, each paired with its recorded IC50 value.
observation type: IC50

chem_smiles=COc1cc(NC(=O)N2CCCC2)ccc1Nc1ncc(Cl)c(Nc2ccccc2NC(C)=O)n1 observation_type=IC50 measured="3.7 nM"
chem_smiles=COc1cc(NC(=O)N2CCN(CCO)CC2)ccc1Nc1ncc(Cl)c(Nc2ccccc2NC(C)=O)n1 observation_type=IC50 measured="2.7 nM"
chem_smiles=COc1cc(NC(=O)NC2CCC(=O)CC2)ccc1Nc1ncc(Cl)c(Nc2ccccc2NC(C)=O)n1 observation_type=IC50 measured="3.9 nM"
chem_smiles=COc1cc(N2CCCC2=O)ccc1Nc1ncc(Cl)c(Nc2ccccc2NC(C)=O)n1 observation_type=IC50 measured="2.9 nM"
